assay: xn = mol fraction of the nth substance listed, in the solute-free solvent; settings: 278.15 K; x2 = 0.2
In this section, each of the molecules is paired with its reported solubility (g/100 g solution).
The response must contain the number and no unit.

Illustrative cases are given below, each with its answer.
{"molecule": "O=C1CCc2ccc(OCCCCN3CCN(c4cccc(Cl)c4Cl)CC3)cc2N1 + CCC(C)=O + CCOC(C)=O", "measured quantity": "solubility (g/100 g solution)", "val": 0.641}
{"molecule": "CCCCOc1ccc(C(=O)CCN2CCCCC2)cc1.Cl + CCO + CCOC(C)=O", "measured quantity": "solubility (g/100 g solution)", "val": 6.73}
{"molecule": "CCCCOc1ccc(C(=O)CCN2CCCCC2)cc1.Cl + CO + C1CCOC1", "measured quantity": "solubility (g/100 g solution)", "val": 7.86}
{"molecule": "O=C1CCc2ccc(OCCCCN3CCN(c4cccc(Cl)c4Cl)CC3)cc2N1 + CCC(C)=O + CCCO", "measured quantity": "solubility (g/100 g solution)", "val": 1.03}
{"molecule": "CCCCOc1ccc(C(=O)CCN2CCCCC2)cc1.Cl + CCO + CCCCCC", "measured quantity": "solubility (g/100 g solution)", "val": 5.09}

Task: Which solubility (g/100 g solution) is reported for this molecule? CCCCOc1ccc(C(=O)CCN2CCCCC2)cc1.Cl + CCO + O
Output: 33.9

Task: Which solubility (g/100 g solution) is reported for this molecule? O=C1CCc2ccc(OCCCCN3CCN(c4cccc(Cl)c4Cl)CC3)cc2N1 + CCC(C)=O + CC(C)=O
Output: 0.882

----------
experiment: xn = mol fraction of the nth substance listed, in the solute-free solvent; details: 288.15 K; x2 = 0.7
Please note: 1.0 applies when solubility (g/100 g solution) is 2 or greater, and 0.0 applies otherwise.

Some entries whose results are on file:
{"compound": "COC1=CC(=O)CC(C)C12Oc1c(Cl)c(OC)cc(OC)c1C2=O (stereo not drawn) + CC(C)=O + CC(C)O", "discrete label": 1.0}
{"compound": "O=C1CCc2ccc(OCCCCN3CCN(c4cccc(Cl)c4Cl)CC3)cc2N1 + CCC(C)=O + CC(C)=O", "discrete label": 0.0}
{"compound": "O=C1CCc2ccc(OCCCCN3CCN(c4cccc(Cl)c4Cl)CC3)cc2N1 + CCC(C)=O + CCOC(C)=O", "discrete label": 0.0}
{"compound": "CCCCOc1ccc(C(=O)CCN2CCCCC2)cc1.Cl + CCO + CCOC(C)=O", "discrete label": 1.0}
{"compound": "CCCCOc1ccc(C(=O)CCN2CCCCC2)cc1.Cl + CCO + CCCCCC", "discrete label": 1.0}

Task: Assess whether reported solubility (g/100 g solution) for O=C1CCc2ccc(OCCCCN3CCN(c4cccc(Cl)c4Cl)CC3)cc2N1 + CCC(C)=O + CCCO sits at 2 or higher.
Output: 1.0

Task: Assess whether reported solubility (g/100 g solution) for COC1=CC(=O)CC(C)C12Oc1c(Cl)c(OC)cc(OC)c1C2=O (stereo not drawn) + CCC(C)=O + CC(C)O sits at 2 or higher.
Output: 0.0

Task: Assess whether reported solubility (g/100 g solution) for CCCCOc1ccc(C(=O)CCN2CCCCC2)cc1.Cl + CCO + O sits at 2 or higher.
Output: 1.0

Task: Assess whether reported solubility (g/100 g solution) for CC(=O)OC(c1ccccc1)C(Cl)(Cl)Cl (stereo not drawn) + CC(=O)O + O sits at 2 or higher.
Output: 1.0

Task: Assess whether reported solubility (g/100 g solution) for COC1=CC(=O)CC(C)C12Oc1c(Cl)c(OC)cc(OC)c1C2=O (stereo not drawn) + CC(=O)CC(C)C + CC(C)O sits at 2 or higher.
Output: 0.0

----------
assay: xn = mol fraction of the nth substance listed, in the solute-free solvent; conditions: 323.15 K; x2 = 0.9
Please note: YES applies when solubility (g/100 g solution) is 5 or greater, and NO applies otherwise.

Some entries whose results are on file:
{"molecule": "CCCCOc1ccc(C(=O)CCN2CCCCC2)cc1.Cl + CO + C1CCOC1", "discrete label": "YES"}
{"molecule": "CCCCOc1ccc(C(=O)CCN2CCCCC2)cc1.Cl + CCO + O", "discrete label": "YES"}
{"molecule": "O=C(O)C1CSCN1 (stereo not given) + O + CC#N", "discrete label": "NO"}
{"molecule": "CC(=O)OC(c1ccccc1)C(Cl)(Cl)Cl (stereo not given) + CC(C)O + O", "discrete label": "YES"}

Task: Assess whether reported solubility (g/100 g solution) for O=C(O)c1ccc(C(=O)O)o1 + C1CCOC1 + O sits at 5 or higher.
Output: NO

----------
test: xn = mol fraction of the nth substance listed, in the solute-free solvent; details: 298.15 K; x2 = 0.8
In this section, each of the compounds is paired with its reported solubility (g/100 g solution).
The response must contain the number and no unit.

Task: Which solubility (g/100 g solution) is reported for this compound? CCCCOc1ccc(C(=O)CCN2CCCCC2)cc1.Cl + CCO + CCOC(C)=O
Output: 34.7

----------
In this section, each of the compounds is paired with its reported solubility (g/100 g solution).
assay: xn = mol fraction of the nth substance listed, in the solute-free solvent; settings: 318.15 K; x2 = 0.7
The response must contain the number and no unit.

Illustrative cases are given below, each with its answer.
{"compound": "O=C(O)c1ccc(C(=O)O)o1 + O + COCCOC", "val": 6.35}
{"compound": "O=C1CCc2ccc(OCCCCN3CCN(c4cccc(Cl)c4Cl)CC3)cc2N1 + CCC(C)=O + CC(C)=O", "val": 5.21}
{"compound": "O=C1CCc2ccc(OCCCCN3CCN(c4cccc(Cl)c4Cl)CC3)cc2N1 + CCC(C)=O + CCCO", "val": 7.71}
{"compound": "O=C1CCc2ccc(OCCCCN3CCN(c4cccc(Cl)c4Cl)CC3)cc2N1 + CCC(C)=O + CCOC(C)=O", "val": 4.42}
{"compound": "CCCCOc1ccc(C(=O)CCN2CCCCC2)cc1.Cl + CCO + O", "val": 57.8}

Task: Which solubility (g/100 g solution) is reported for this compound? O=C(O)c1ccc(C(=O)O)o1 + C1CCOC1 + O
Output: 7.77

Task: Which solubility (g/100 g solution) is reported for this compound? CC(=O)OC(c1ccccc1)C(Cl)(Cl)Cl (configuration not stated) + CC(C)O + O
Output: 12.2

----------
test: xn = mol fraction of the nth substance listed, in the solute-free solvent; details: 288.15 K; x2 = 0.4
In this section, each of the molecules is paired with its reported solubility (g/100 g solution).

{"molecule": "O=C1CCc2ccc(OCCCCN3CCN(c4cccc(Cl)c4Cl)CC3)cc2N1 + CCC(C)=O + CCCO", "val": 2.24}
{"molecule": "O=C1CCc2ccc(OCCCCN3CCN(c4cccc(Cl)c4Cl)CC3)cc2N1 + CCC(C)=O + CCOC(C)=O", "val": 1.14}
{"molecule": "CC(=O)OC(c1ccccc1)C(Cl)(Cl)Cl (centres undefined) + CC(C)O + O", "val": 0.68}
{"molecule": "CCCCOc1ccc(C(=O)CCN2CCCCC2)cc1.Cl + CCO + CCOC(C)=O", "val": 15.1}
{"molecule": "CC(=O)OC(c1ccccc1)C(Cl)(Cl)Cl (centres undefined) + CC(=O)O + O", "val": 0.229}

Task: Which solubility (g/100 g solution) is reported for this molecule? COC1=CC(=O)CC(C)C12Oc1c(Cl)c(OC)cc(OC)c1C2=O (centres undefined) + CCC(C)=O + CC(C)O
Output: 0.779

Task: Which solubility (g/100 g solution) is reported for this molecule? COC1=CC(=O)CC(C)C12Oc1c(Cl)c(OC)cc(OC)c1C2=O (centres undefined) + CC(C)=O + CC(C)O
Output: 0.915

Task: Which solubility (g/100 g solution) is reported for this molecule? CCCCOc1ccc(C(=O)CCN2CCCCC2)cc1.Cl + CO + C1CCOC1
Output: 20.1

Task: Which solubility (g/100 g solution) is reported for this molecule? CCCCOc1ccc(C(=O)CCN2CCCCC2)cc1.Cl + CCO + CCCCCC
Output: 13.1

----------
experiment: xn = mol fraction of the nth substance listed, in the solute-free solvent; conditions: 288.15 K; x2 = 0.9
measured quantity: solubility (g/100 g solution)
The response must contain the number and no unit.

Illustrative cases are given below, each with its answer.
{"compound": "COC1=CC(=O)CC(C)C12Oc1c(Cl)c(OC)cc(OC)c1C2=O (stereo not drawn) + CC(C)=O + CC(C)O", "val": 2.71}
{"compound": "COC1=CC(=O)CC(C)C12Oc1c(Cl)c(OC)cc(OC)c1C2=O (stereo not drawn) + CCC(C)=O + CC(C)O", "val": 2.02}

Task: Which solubility (g/100 g solution) is reported for this compound? CCCCOc1ccc(C(=O)CCN2CCCCC2)cc1.Cl + CCO + O
Output: 37.8

Recorded values, source the CheMixHub drug solubility set.
